# testMethodNotes: yeast display, Sf9 membrane polyspecificity reagent, FACS + sequencing; frameworks hold sequencing errors
measurementName: polyreactivity (PSR sort gate)

• QVQLVESGGGLVQAGGSLRLSCAASGRIFYGYTMGWYRQAPGKERELVAAITWSGGSTHYADSVKGRFTISRDNAKNTVYLQMNSLKPEVTAVYYCNARRRSVYRGLYDYWGQGTQVTVSS = high polyreactivity
• QVQLVESGGGLVQAGGSLRLSCAASGITSSYAMGWYRQAPGKERALVAAISRGGSTYYADSVKGRFTISRDNAKNTVSLQMNSLKPEDTAVYYCNKRRYPYGWGQGTQVTVSS = high polyreactivity
• QVQLVESGGGLDQAGGSLRLICDAYGSTFNWNAMGWYRQAPGKERELVAAISSGGSTNYADSVKGRFTISRDNAKNTVYLQMNSLKPEDTAVYYCARQHSRWYSGYKYNYWGQGTQVTVSS = high polyreactivity
